Bridge positions count the residues as written; N and C are the ends. Square brackets hold non-standard residues; d marks the D form. Peptide text beside a SMILES is read from it. NMeT = CN[C@H](C(=O)O)[C@@H](C)O; NMeK = CN[C@@H](CCCCN)C(=O)O
// values below are Kd; system is hSSTR-3 (Homo sapiens)
Sequence (P32745 whole entry): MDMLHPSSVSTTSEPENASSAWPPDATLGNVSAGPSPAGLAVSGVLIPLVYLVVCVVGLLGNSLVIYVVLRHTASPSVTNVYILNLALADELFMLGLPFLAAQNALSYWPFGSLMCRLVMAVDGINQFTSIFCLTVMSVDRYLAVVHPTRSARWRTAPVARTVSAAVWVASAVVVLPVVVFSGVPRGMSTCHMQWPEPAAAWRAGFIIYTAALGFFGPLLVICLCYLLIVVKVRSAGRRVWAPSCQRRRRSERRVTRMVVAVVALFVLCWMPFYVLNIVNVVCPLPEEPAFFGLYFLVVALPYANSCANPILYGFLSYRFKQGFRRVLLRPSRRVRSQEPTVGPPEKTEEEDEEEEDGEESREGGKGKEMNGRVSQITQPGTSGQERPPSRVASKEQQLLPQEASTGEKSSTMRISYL
READOUT TYPE: Kd (nM)

COMPOUND	OBS VALUE
C[C@@H](O)[C@H](NC(=O)[C@@H]1CSSC[C@H](NC(=O)[C@@H](N)Cc2ccc(O)cc2)C(=O)N[C@@H](Cc2ccccc2)C(=O)N[C@H](Cc2c[nH]c3ccccc23)C(=O)N[C@@H](CCCCN)C(=O)N[C@@H]([C@@H](C)O)C(=O)N1)C(N)=O [Example 18] (H-YCF[dW]KTCT-NH2; disulfide 2-7; N-terminus assumed)	18.2
C[C@@H](O)[C@H](NC(=O)[C@@H]1CSSC[C@H](NC(=O)[C@@H](N)Cc2ccc(O)cc2)C(=O)N[C@@H](Cc2ccccc2)C(=O)N[C@H](Cc2c[nH]c3ccccc23)C(=O)N(C)[C@@H](CCCCN)C(=O)N[C@@H]([C@@H](C)O)C(=O)N1)C(N)=O [Example 14] (H-YCF[dW][NMeK]TCT-NH2; disulfide 2-7; N-terminus assumed)	51
C[C@@H](O)[C@@H]1NC(=O)[C@H](CCCCN)NC(=O)[C@@H](Cc2c[nH]c3ccccc23)NC(=O)[C@H](Cc2ccccc2)NC(=O)[C@@H](NC(=O)[C@@H](N)Cc2ccc(O)cc2)CSSC[C@@H](C(=O)N(C)[C@H](C(N)=O)[C@@H](C)O)NC1=O [Example 17] (H-YCF[dW]KTC[NMeT]-NH2; disulfide 2-7; N-terminus assumed)	535

---

// values below are Kd; system is UniProt P30874
Sequence (P30874 whole entry): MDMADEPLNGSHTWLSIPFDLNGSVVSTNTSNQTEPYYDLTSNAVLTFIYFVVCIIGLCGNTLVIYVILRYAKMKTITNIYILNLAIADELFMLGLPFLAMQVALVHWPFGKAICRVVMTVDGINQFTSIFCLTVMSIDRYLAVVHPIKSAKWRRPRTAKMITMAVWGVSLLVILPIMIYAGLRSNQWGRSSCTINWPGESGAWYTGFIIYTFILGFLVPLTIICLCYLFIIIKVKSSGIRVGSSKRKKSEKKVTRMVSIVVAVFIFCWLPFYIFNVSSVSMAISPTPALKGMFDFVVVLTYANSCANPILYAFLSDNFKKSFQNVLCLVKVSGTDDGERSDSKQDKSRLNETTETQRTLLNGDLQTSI
Bridge positions count the residues as written; N and C are the ends. Square brackets hold non-standard residues; d marks the D form. Peptide text beside a SMILES is read from it. NMeY = CN[C@@H](Cc1ccc(O)cc1)C(=O)O; NMeT = CN[C@H](C(=O)O)[C@@H](C)O; NMeC = CN[C@@H](CS)C(=O)O
READOUT TYPE: Kd (nM)

MOLECULE	READOUT TYPE	OBS VALUE
CN[C@@H](Cc1ccc(O)cc1)C(=O)N[C@H]1CSSC[C@@H](C(=O)N[C@H](C(N)=O)[C@@H](C)O)NC(=O)[C@H]([C@@H](C)O)NC(=O)[C@H](CCCCN)NC(=O)[C@@H](Cc2c[nH]c3ccccc23)NC(=O)[C@H](Cc2ccccc2)NC1=O [Example 10] (H-[NMeY]CF[dW]KTCT-NH2; disulfide 2-7; N-terminus assumed)	Kd	9.74
C[C@@H](O)[C@H](NC(=O)[C@@H]1CSSC[C@H](NC(=O)[C@@H](N)Cc2ccc(O)cc2)C(=O)N[C@@H](Cc2ccccc2)C(=O)N[C@H](Cc2c[nH]c3ccccc23)C(=O)N[C@@H](CCCCN)C(=O)N(C)[C@@H]([C@@H](C)O)C(=O)N1)C(N)=O [Example 15] (H-YCF[dW]K[NMeT]CT-NH2; disulfide 2-7; N-terminus assumed)	Kd	61.3
C[C@@H](O)[C@H](NC(=O)[C@@H]1CSSC[C@H](N(C)C(=O)[C@@H](N)Cc2ccc(O)cc2)C(=O)N[C@@H](Cc2ccccc2)C(=O)N[C@H](Cc2c[nH]c3ccccc23)C(=O)N[C@@H](CCCCN)C(=O)N[C@@H]([C@@H](C)O)C(=O)N1)C(N)=O [Example 11] (H-Y[NMeC]F[dW]KTCT-NH2; disulfide 2-7; N-terminus assumed)	Kd	8.96

// data source = patent US20080090756A1
